Form field: ADCC reporter assay, Max RLU, CHOK1/B7-H3 cells (one value per entry).
# experimental target: T1, B7-H3 on CHO-K1 cells stably transfected with B7-H3 (GenScript #M00536) (UniProt Q5ZPR3 29-534, limits assumed)
# T1 sequence (looked up): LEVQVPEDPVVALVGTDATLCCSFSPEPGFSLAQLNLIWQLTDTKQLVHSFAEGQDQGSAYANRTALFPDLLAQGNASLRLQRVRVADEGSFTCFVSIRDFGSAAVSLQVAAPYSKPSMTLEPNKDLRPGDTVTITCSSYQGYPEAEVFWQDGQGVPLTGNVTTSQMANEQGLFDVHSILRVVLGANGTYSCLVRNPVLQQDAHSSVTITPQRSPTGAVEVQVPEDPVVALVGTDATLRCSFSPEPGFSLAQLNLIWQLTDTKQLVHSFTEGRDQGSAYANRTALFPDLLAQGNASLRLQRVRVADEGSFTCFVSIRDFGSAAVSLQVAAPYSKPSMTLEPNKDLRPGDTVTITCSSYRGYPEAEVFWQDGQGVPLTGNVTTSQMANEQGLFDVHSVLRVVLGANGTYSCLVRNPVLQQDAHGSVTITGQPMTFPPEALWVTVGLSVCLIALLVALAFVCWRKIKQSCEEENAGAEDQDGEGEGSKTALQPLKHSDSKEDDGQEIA
# protocol summary: cell-based or functional assay
Please make sure the unit comes right after the number.

// ADCC reporter assay, Max RLU, CHOK1/B7-H3 cells lookup, binder = 40511p1.1.G1 IgG (antibody, V domains shown) VH: DVQLVESGGGVVRPGESLRLSCAASGFTFSSYAESWVRQAPGEGLEWVSIISGSGGNTFYADSVKGRFTISRDNSKNTLYLQMNSLRAEDTAVYYCARFAYGFFDYWGLGTLVTVSS VL: EIVLTQSPGTLSVSPGEGATLSCRASQTVGSKLAWYQQKPGQPPSLLIYDASTRATGIPDRFSGSGSGTDFTLTISSLQSEDFAVYYCQQYRNWPPLTFGGGTKVEIK , result: 679000 RLU

// ADCC reporter assay, Max RLU, CHOK1/B7-H3 cells lookup, binder = 40633p1.2.D11 IgG (antibody, V domains shown) VH: EVQLESGGGLVQPGGSLRLSCAASGFTVSYYGMSWVRQAPGKGLEWVSAIKQDGSEKYYADSVKGRFTISRDNSKNTLYLQMNSLRAEDTAVYYCARHWNDYSNAMNVWGQGTTVTVSS VL: QSVLTQPPSASGTPGQRVTISCSGSTSNIAIDFVNWYQQLPGTAPKLLIYTIDQRPSGVPDRFSGSKSGTSASLAISGLQSEDEAVYYCASWDASLNGWVFGRGTKLTVL , result: 510000 RLU
